This collection of values is drawn from paper PMC2659725.

Target: tubulin (Bos taurus, UniProt P81947+Q6B856)
Sequence (P81947 whole entry): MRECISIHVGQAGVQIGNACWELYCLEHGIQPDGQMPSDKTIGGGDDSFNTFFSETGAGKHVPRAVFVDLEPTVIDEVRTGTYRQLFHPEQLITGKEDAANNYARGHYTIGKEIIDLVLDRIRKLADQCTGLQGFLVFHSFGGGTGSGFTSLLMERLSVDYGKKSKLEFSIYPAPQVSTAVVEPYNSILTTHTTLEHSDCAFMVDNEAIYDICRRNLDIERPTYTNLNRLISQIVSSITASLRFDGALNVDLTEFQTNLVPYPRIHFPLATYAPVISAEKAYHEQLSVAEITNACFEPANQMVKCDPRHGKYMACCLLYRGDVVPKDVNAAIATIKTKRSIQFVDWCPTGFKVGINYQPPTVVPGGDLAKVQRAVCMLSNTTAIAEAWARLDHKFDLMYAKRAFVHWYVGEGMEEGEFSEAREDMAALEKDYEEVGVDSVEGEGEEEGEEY
Sequence (Q6B856 whole entry): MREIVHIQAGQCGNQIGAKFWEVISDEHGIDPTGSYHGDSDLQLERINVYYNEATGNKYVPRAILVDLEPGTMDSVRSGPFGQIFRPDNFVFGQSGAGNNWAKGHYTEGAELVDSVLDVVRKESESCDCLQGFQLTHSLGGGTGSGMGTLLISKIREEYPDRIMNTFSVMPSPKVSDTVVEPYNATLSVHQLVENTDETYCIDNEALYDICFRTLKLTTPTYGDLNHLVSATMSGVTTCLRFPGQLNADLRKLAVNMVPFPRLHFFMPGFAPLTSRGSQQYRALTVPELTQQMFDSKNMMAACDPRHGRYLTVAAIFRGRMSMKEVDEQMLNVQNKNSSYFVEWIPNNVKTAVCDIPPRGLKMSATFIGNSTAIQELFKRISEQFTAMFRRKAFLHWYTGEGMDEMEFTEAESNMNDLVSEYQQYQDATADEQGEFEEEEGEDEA
Assay type: biochemical, bovine
Details: 30 μM tubulin, 30 μM paclitaxel, no exogenous GTP
ENDPOINT: Effect on paclitaxel-induced tubulin assembly

For O=c1ccn([C@@H]2O[C@H](COP(=O)(O)OP(=O)(O)OP(=O)(O)O)[C@@H](O)[C@H]2O)c(=O)[nH]1 , write its Effect on paclitaxel-induced tubulin assembly.
stimulatory

For O=c1[nH]cnc2c1ncn2[C@@H]1O[C@H](COP(=O)(O)OP(=O)(O)OP(=O)(O)O)[C@@H](O)[C@H]1O , write its Effect on paclitaxel-induced tubulin assembly.
stimulatory

----------
Target: tubulin (Bos taurus, UniProt P81947+Q6B856)
pIC50: −log10 of the molar value.
ENDPOINT: pIC50

Identify measured pIC50 obtained with tubulin (Bos taurus, UniProt P81947+Q6B856) for COc1cc2cc(c1Cl)N(C)C(=O)C[C@H](OC(=O)[C@H](C)N(C)C(C)=O)[C@]1(C)O[C@H]1[C@H](C)[C@@H]1C[C@@](O)(NC(=O)O1)[C@H](OC)/C=C/C=C(\C)C2 [maytansine] .
> 5.30
